Source listed as patent EP0312000B1.

ENDPOINT: MIC (µg/mL)
Your answer should be a plain number; it is taken to be in µg/mL.

The molecule CC(=O)NC[C@H]1CN(c2ccc(C(=O)c3ccc([N+](=O)[O-])cc3)cc2)C(=O)O1 [Example 9] , tested on Staphylococcus aureus, showed MIC of 1

The molecule CC(=O)NC[C@H]1CN(c2ccc(C(O)c3ccccc3)cc2)C(=O)O1 (stereo partly drawn) [Example 20] , tested on Staphylococcus aureus, showed MIC of 32

The molecule CC(=O)NC[C@H]1CN(c2ccc(C(=O)c3ccc(F)cc3)cc2)C(=O)O1 [Example 1] , tested on Staphylococcus aureus, showed MIC of 4

###

# Test system: Staphylococcus Aureus
# PROTOCOL DETAILS: In vivo activity in an acute lethal mouse infection model
# MEASUREMENT CONTEXT: 168 h, mice infected intraperitoneally with S. aureus, oral in 0.25% aqueous Methocel, dosed at one hour and four hours post-infection, survivors on seventh day, read-out: ED₅₀ Oral Administration
ENDPOINT: ED50 (mg/kg)
Your answer should be a plain number; it is taken to be in mg/kg.

ED50 measured on CC(=O)NC[C@H]1CN(c2ccc(C(=O)c3cccc(F)c3)cc2)C(=O)O1 = 42

ED50 measured on CC(=O)NC[C@H]1CN(c2ccc(C(=O)c3ccccc3)cc2)C(=O)O1 = 47

ED50 measured on CC(=O)NC[C@H]1CN(c2ccc(C(=O)c3ccc(F)cc3F)cc2)C(=O)O1 = 30

###

# System: Staphylococcus Aureus
# PROTOCOL DETAILS: In vivo activity in an acute lethal mouse infection model
# MEASUREMENT CONTEXT: 168 h, mice infected intraperitoneally with S. aureus, oral in 0.25% aqueous Methocel, dosed at one hour and four hours post-infection, survivors on seventh day, read-out: ED₅₀ Oral Administration
ENDPOINT: ED50

ED50 measured on COc1cc(Cl)ccc1C(=O)c1ccc(N2C[C@H](CNC(C)=O)OC2=O)cc1 [Example 7] = > 120 mg/kg

ED50 measured on CC(=O)NC[C@H]1CN(c2ccc(C(=O)c3ccc(S(C)(=O)=O)cc3)cc2)C(=O)O1 [Example 11] = > 90 mg/kg

ED50 measured on CSc1ccc(C(=O)c2ccc(N3C[C@H](CNC(C)=O)OC3=O)cc2)cc1 [Example 8] = > 90 mg/kg
